- Study Target: T1, human MSLN-His-Avi (human, UniProt Q13421 296-598, single biotin (BirA) in the biotinylated form)
- T1 construct: Monomeric, made in HEK293-6E; Used both immobilised and in solution; also called hMSLN-His-Avi; biotinylated hMSLN-His-Avi
- T1 sequence (Q13421 other isoform, or with tags, fused parts or gaps): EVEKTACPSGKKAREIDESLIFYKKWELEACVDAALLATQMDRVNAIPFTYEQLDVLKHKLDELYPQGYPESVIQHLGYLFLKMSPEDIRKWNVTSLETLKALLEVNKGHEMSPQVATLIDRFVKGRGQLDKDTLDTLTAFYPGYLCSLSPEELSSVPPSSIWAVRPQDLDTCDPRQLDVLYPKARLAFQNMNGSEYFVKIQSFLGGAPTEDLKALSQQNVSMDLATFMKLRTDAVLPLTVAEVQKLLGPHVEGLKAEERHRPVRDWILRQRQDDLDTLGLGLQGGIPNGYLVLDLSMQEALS
- Measurement Protocol: SPR as Example 4.1 (about 40 RU instead of 100), MSLN immobilised
pKd: −log10 of the molar value.
Use MET when the recorded pKd is no lower than 8; use NOT MET when it is lower.

Quick check, pKd >= 8? FS28-256-027 (in CD137 mAb^2 format, Table 6) (bispecific antibody, V domains shown) VH: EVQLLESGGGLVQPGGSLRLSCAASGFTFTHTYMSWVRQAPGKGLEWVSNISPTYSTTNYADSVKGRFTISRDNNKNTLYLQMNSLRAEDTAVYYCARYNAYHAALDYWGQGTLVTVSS VL: EIVLTQSPGTLSLSPGERATLSCRASQSVSSSYLAWYQQKPGQAPRLLIYGASSRATGIPDRFSGSGSGTDFTLTISRLEPEDFAVYYCQQTVPYPYTFGQGTKVEIK
MET

For this binder, is measured pKd 8 or higher? FS28-256-274 (in CD137 mAb^2 format) (bispecific antibody, V domains shown) VH: EVQLLESGGGLVQPGGSLRLSCAASGFTFTHTYMSWVRQAPGKGLEWVSTISPTYSTTNYADSVKGRFTISRDNNKNTLYLQMNSLRAEDTAVYYCARYNAYHAALDYWGQGTLVTVSS VL: EIVLTQSPGTLSLSPGERATLSCRASQSVSSSYLAWYQQKPGQAPRLLIYGASSRATGIPDRFSGSGSGTDFTLTISRLEPEDFAVYYCQQTVPYPYTFGQGTKVEIK
NOT MET
